// values below are reported pIC50
Molecular target: Human recombinant His-tagged PFKFB3 (Homo sapiens)
Construct: His
Sequence (Q16875 whole entry): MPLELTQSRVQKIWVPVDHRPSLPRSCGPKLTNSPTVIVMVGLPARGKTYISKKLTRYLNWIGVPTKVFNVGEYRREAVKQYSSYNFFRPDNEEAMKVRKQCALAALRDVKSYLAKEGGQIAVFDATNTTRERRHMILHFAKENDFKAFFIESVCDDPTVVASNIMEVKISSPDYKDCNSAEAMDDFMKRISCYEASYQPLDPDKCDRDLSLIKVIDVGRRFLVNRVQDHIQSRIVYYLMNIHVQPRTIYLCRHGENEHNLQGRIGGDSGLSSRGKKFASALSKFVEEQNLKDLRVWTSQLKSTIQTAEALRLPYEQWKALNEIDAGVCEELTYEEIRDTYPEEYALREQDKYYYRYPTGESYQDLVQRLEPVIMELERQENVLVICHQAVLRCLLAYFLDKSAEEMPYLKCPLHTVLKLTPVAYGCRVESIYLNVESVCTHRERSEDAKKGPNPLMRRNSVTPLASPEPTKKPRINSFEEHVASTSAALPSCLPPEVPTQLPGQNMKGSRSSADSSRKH
Experiment: PFKFB3 IC50 Determination Assay (in vitro kinase assay, modified ADP-Glo system)
Settings: ATP 20 μM and fructose-6-phosphate 2 μM (Km), 25 nM PFKFB3, 2 h, rt, ADP-Glo luminescence
Procedure: PFKFB3 IC50 Determination Assay In vitro kinase assay used to determine IC50 values for tested inhibitors is based on a modified ADP-Glo™ system (Promega) and consists of two parts: 1. Kinase reaction—performed in optimized conditions. […] 30 μL of 5x diluted ADP-Glo™ Reagent is added to each well of 96-well plate containing 30 μL of reaction mixture. […] Luminescence is measured in the plate reader Synergy 2 (BioTek). […]
pIC50: −log10 of the molar value.

See these solved cases before continuing.
• Cc1ccc(C)c(-c2cc(Nc3cnccc3S(C)(=O)=O)cc3nccnc23)c1 [Example 39] = 6.00 to 9.00
• CS(=O)(=O)c1ccncc1Nc1cc(-c2ccc3occ(CCl)c3c2)c2nccnc2c1 [Example 58] = 4.00 to 5.00
• Cn1ccc2ccc(-c3cc(Nc4cncc5c4OCCN5)cc4nccnc34)cc21 [Example 84] = 6.00 to 9.00
• COC(=O)c1ccc(S(C)(=O)=O)c(Nc2cc(-c3ccc4ccn(C)c4c3)c3nccnc3c2)c1 [Example 115] = 5.00 to 6.00

Task: Tell us which pIC50 value is on record for Cn1ccc2ccc(-c3cc(Nc4ncncc4S(C)(=O)=O)cc4nccnc34)cc21 [Example 27]
Result: 5.00 to 6.00

Task: Tell us which pIC50 value is on record for COc1ccc(C)cc1-c1cc(Nc2cnccc2S(C)(=O)=O)cc2nccnc12 [Example 74]
Result: 5.00 to 6.00

Task: Tell us which pIC50 value is on record for Cc1coc2ccc(-c3cc(Nc4c[n+]([O-])ccc4S(C)(=O)=O)cc4nccnc34)cc12 [Example 72]
Result: 6.00 to 9.00

Task: Tell us which pIC50 value is on record for Cn1ccc2cc(-c3cc(Nc4cnccc4C#N)cc4nccnc34)ccc21 [Example 28]
Result: 4.00 to 5.00
